The values you see were collected from patent US11547681B2.

% Remaining of Initial (n = 1) reference
- assayNotes: Simulated intestinal fluid (SIF) stability in the presence of various enzymes
- Type: in vitro ADME
- particulars: SIF + Elastase, 120 min, 1 μM

molecule | % Remaining of Initial (n = 1)
CC/C=C\C/C=C\C/C=C\C/C=C\C/C=C\CCCC(=O)OCCNC(=O)CCCCCCCCCCCCCCC | 35%
CCCCCCCCCCCCCCCC(=O)NCCOC(=O)CCC(=O)OCC(O)CO (centres unmarked) | 6.3%
CCCCC/C=C\C/C=C\CCCCCCCC(=O)OCCNC(=O)CCCCCCCCCCCCCCC | 69%
CCCCCCCCCCCCCCCC(=O)NCCOC(=O)CCC | 28%
CCCCCCCCCCCCCCCC(=O)NCCOC(=O)CCC(=O)OCC(COC(=O)CCCCCCC)OC(=O)CCCCCCC (centres unmarked) [Compound I-3, PEA-Succinate-Glycerol-Di-Caprylic] | 29%

* * *

- assayNotes: Plasma stability (37° C., pH 7.4), human
- Assay type: in vitro ADME
- particulars: human plasma, test article 1 μM, 37° C., pH 7.4, 30 min
recordedMetric: % Remaining of Initial (n = 1), 30 min (%)

compound | recordedMetric | limitOperator | reported
CCCCC/C=C\C/C=C\CCCCCCCC(=O)OCCNC(=O)CCCCCCCCCCCCCCC [Compound I-6] | % Remaining of Initial (n = 1), 30 min | = | 102
CCCCCCCCCCCCCCCC(=O)NCCOC(=O)CCC(=O)OCC(O)CO (stereo not shown) [Compound I-9] | % Remaining of Initial (n = 1), 30 min | = | 1.4
CCCCCCCCCCCCCCCC(=O)NCCOC(=O)CCC(=O)OCC(COC(=O)CCCCCCC)OC(=O)CCCCCCC (stereo not shown) [Compound I-3, PEA-Succinate-Glycerol-Di-Caprylic] | % Remaining of Initial (n = 1), 30 min | = | 84
CCCCCCCCCCCCCCCC(=O)NCCOC(=O)CCC(=O)OCC(COC(=O)CCC)OC(=O)CCC (stereo not shown) [Compound I-11] | % Remaining of Initial (n = 1), 30 min | = | 47
CC/C=C\C/C=C\C/C=C\C/C=C\C/C=C\CCCC(=O)OCCNC(=O)CCCCCCCCCCCCCCC [Compound I-5] | % Remaining of Initial (n = 1), 30 min | = | 81
CCCCCCCCCCCCCCCC(=O)NCCOC(=O)CCC [Compound I-2] | % Remaining of Initial (n = 1), 30 min | = | 91
CCCCCCCCCCCCCCCC(=O)NCCOC(=O)CCC(=O)OC[C@H]1O[C@@](CO)(O[C@H]2O[C@H](CO)[C@@H](O)[C@H](O)[C@H]2O)[C@@H](O)[C@@H]1O [Compound I-7] | % Remaining of Initial (n = 1), 30 min | < | 1.0

* * *

- assayNotes: Intestinal S9 fraction stability, mouse
- particulars: male, CD-1, mouse, s9, CLint (ml/min/mg protein), calculated value in parentheses, control compound, mouse intestinal S9 fraction; calculated value beyond duration of experiment
recordedMetric: microsomal CLint (µL/min/mg)

molecule | endpointUnit | reported
C[C@]12CC[C@H]3[C@@H](CCC4=CC(=O)CC[C@@]43C)[C@@H]1CC[C@@H]2O [Testosterone, testosterone, reference compound] | µL/min/mg | 9.19

* * *

Measured concentration of analyte PEA, 60 min reference
- assayNotes: in vitro
- particulars: male, Beagle, dog, 60 min, 1 μM
recordedMetric: Measured concentration of analyte PEA, 60 min (µM)

molecule | reported
CCCCCCCCCCCCCCCC(=O)NCCOC(=O)CCC(=O)OCC(O)CO (stereo not drawn) | 0.18
CCCCCCCCCCCCCCCC(=O)NCCOC(=O)CCC(=O)OC[C@H]1O[C@@](CO)(O[C@H]2O[C@H](CO)[C@@H](O)[C@H](O)[C@H]2O)[C@@H](O)[C@@H]1O | 0.20
CCCCCCCCCCCCCCCC(=O)NCCOC(=O)CCC(=O)OCC(COC(=O)CCCCCCC)OC(=O)CCCCCCC (stereo not drawn) [Compound I-3, PEA-Succinate-Glycerol-Di-Caprylic] | 0.053

* * *

microsomal CLint at 1 μM reference
- assayNotes: in vitro
- particulars: both, human, microsomes, CLint

molecule | limitOperator | microsomal CLint at 1 μM / µL/min/mg
CC/C=C\C/C=C\C/C=C\C/C=C\C/C=C\CCCC(=O)OCCNC(=O)CCCCCCCCCCCCCCC | < | 23.1
CCCCCCCCCCCCCCCC(=O)NCCOC(=O)CCC | = | 451
CCCCCCCCCCCCCCCC(=O)NCCOC(=O)CCC(=O)OCC(COC(=O)CCC)OC(=O)CCC (stereo not drawn) | = | 696

* * *

- assayNotes: in vitro
- particulars: both, human, s9, CLint (mL/min/mg protein), calculated value in parentheses

smi | microsomal CLint at 1 μM / µL/min/mg
CCCCC/C=C\C/C=C\CCCCCCCC(=O)OCCNC(=O)CCCCCCCCCCCCCCC | 6.82

* * *

- assayNotes: in vitro
- particulars: male, CD-1, mouse, microsomes, Half-life
half-life at 1 μM reference

compound | limitOperator | half-life at 1 μM [min]
CCCCCCCCCCCCCCCC(=O)NCCOC(=O)CCC(=O)OC[C@H]1O[C@@](CO)(O[C@H]2O[C@H](CO)[C@@H](O)[C@H](O)[C@H]2O)[C@@H](O)[C@@H]1O | = | 1.7
CCCCC/C=C\C/C=C\CCCCCCCC(=O)OCCNC(=O)CCCCCCCCCCCCCCC | > | 60
CCCCCCCCCCCCCCCC(=O)NCCOC(=O)CCC(=O)OCC(O)CO (stereo not shown) | < | 1
CCCCCCCCCCCCCCCC(=O)NCCOC(=O)CCC(=O)OCC(COC(=O)CCC)OC(=O)CCC (stereo not shown) | = | 2
CC/C=C\C/C=C\C/C=C\C/C=C\C/C=C\CCCC(=O)OCCNC(=O)CCCCCCCCCCCCCCC | = | 59
CCCCCCCCCCCCCCCC(=O)NCCOC(=O)CCC | < | 1
CCCCCCCCCCCCCCCC(=O)NCCOC(=O)CCC(=O)OC(COC(=O)CCC)COC(=O)CCC | < | 10
CCCCC/C=C\C/C=C\CCCCCCCC(=O)OCC(COC(=O)CCC(=O)OCCNC(=O)CCCCCCCCCCCCCCC)OC(=O)CCCCCCC/C=C\C/C=C\CCCCC (stereo not shown) | = | 48
CCCCCCCCCCCCCCCC(=O)NCCOC(=O)CCC(=O)OCC(COC(=O)CCCCCCC)OC(=O)CCCCCCC (stereo not shown) [Compound I-3, PEA-Succinate-Glycerol-Di-Caprylic] | > | 60
CCCCCCCCCCCCCCCC(=O)NCCOC(=O)CCC(=O)OC(CO)CO | < | 1

* * *

- assayNotes: in vitro
- particulars: both, human, s9, Clint, control compound
recordedMetric: microsomal CLint (µL/min/mg)

molecule | reported
O=c1ccc2ccc(O)cc2o1 [Compound 7-HC, 7-hydroxycoumarin, reference compound] | 943

* * *

- assayNotes: in vitro
- particulars: male, CD-1, mouse, microsomes, 10 min, 1 μM
// assign rule met if % Remaining of Initial, 10 min falls strictly below 70%, else rule not met (ties count as rule not met)

compound | classAssignment
CCCCCCCCCCCCCCCC(=O)NCCOC(=O)CCC(=O)OCC(COC(=O)CCCCCCC)OC(=O)CCCCCCC (stereo not shown) [Compound I-3, PEA-Succinate-Glycerol-Di-Caprylic] | rule not met
CCCCCCCCCCCCCCCC(=O)NCCOC(=O)CCC(=O)OCC(COC(=O)CCC)OC(=O)CCC (stereo not shown) [Compound I-11] | rule met
CCCCC/C=C\C/C=C\CCCCCCCC(=O)OCCNC(=O)CCCCCCCCCCCCCCC [Compound I-6] | rule not met
CCCCCCCCCCCCCCCC(=O)NCCOC(=O)CCC(=O)OCC(O)CO (stereo not shown) [Compound I-9] | rule met
CCCCCCCCCCCCCCCC(=O)NCCOC(=O)CCC(=O)OC[C@H]1O[C@@](CO)(O[C@H]2O[C@H](CO)[C@@H](O)[C@H](O)[C@H]2O)[C@@H](O)[C@@H]1O [Compound I-7] | rule met
CCCCCCCCCCCCCCCC(=O)NCCOC(=O)CCC [Compound I-2] | rule met

* * *

% Remaining of Initial, 30 min reference
- assayNotes: in vitro
- particulars: both, human, microsomes, 0.5 h, 1 μM

compound | limitOperator | % Remaining of Initial, 30 min, %
CCCCCCCCCCCCCCCC(=O)NCCOC(=O)CCC(=O)OCC(COC(=O)CCC)OC(=O)CCC (stereo not shown) | < | 1.0
CCCCCCCCCCCCCCCC(=O)NCCOC(=O)CCC(=O)OC[C@H]1O[C@@](CO)(O[C@H]2O[C@H](CO)[C@@H](O)[C@H](O)[C@H]2O)[C@@H](O)[C@@H]1O | < | 1.0
CCCCC/C=C\C/C=C\CCCCCCCC(=O)OCCNC(=O)CCCCCCCCCCCCCCC | = | 66
CCCCCCCCCCCCCCCC(=O)NCCOC(=O)CCC(=O)OCC(O)CO (stereo not shown) | < | 1.0
CCCCCCCCCCCCCCCC(=O)NCCOC(=O)CCC | < | 1.0
CC/C=C\C/C=C\C/C=C\C/C=C\C/C=C\CCCC(=O)OCCNC(=O)CCCCCCCCCCCCCCC | = | 79
CCCCCCCCCCCCCCCC(=O)NCCOC(=O)CCC(=O)OCC(COC(=O)CCCCCCC)OC(=O)CCCCCCC (stereo not shown) [Compound I-3, PEA-Succinate-Glycerol-Di-Caprylic] | = | 74
